target_or_system: 5-HT2A receptor (Homo sapiens, UniProt P28223)
Construct: expressed in transfected cells
Sequence (P28223 whole entry): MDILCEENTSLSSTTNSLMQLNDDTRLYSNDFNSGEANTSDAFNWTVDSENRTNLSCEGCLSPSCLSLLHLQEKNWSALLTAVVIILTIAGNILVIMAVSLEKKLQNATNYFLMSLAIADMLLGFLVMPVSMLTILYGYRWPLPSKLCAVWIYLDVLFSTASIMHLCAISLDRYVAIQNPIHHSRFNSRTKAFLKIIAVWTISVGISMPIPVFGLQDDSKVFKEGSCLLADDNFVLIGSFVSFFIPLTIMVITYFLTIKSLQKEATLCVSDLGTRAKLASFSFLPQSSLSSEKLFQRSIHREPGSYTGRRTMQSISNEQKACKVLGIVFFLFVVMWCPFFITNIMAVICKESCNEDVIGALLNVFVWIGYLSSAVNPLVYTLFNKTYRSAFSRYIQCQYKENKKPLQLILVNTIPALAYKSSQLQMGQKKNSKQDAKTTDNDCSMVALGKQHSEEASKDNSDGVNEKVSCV
procedure_summary: 5-HT2A receptor functional screening assay (efficacy relative to maximal 5-HT response)
Format: cell-based
recorded_conditions: 500 nM
From the text: […]
Kindly supply the reported activation at 0.5 µM values for the records listed here.
Supply the numeric figure in %, leaving out any unit text.

Item: `Oc1cccc2[nH]cc(CCN(CCC(F)F)CCC(F)F)c12` | activation at 0.5 µM: 58.3

Item: `CN(CCc1c[nH]c2cccc(O)c12)CC(F)F` | activation at 0.5 µM: 17.8

Item: `FC(F)(F)CCN(CCc1c[nH]c2ccccc12)CCC(F)(F)F` | activation at 0.5 µM: -29.7

Item: `FC1(F)CCN(CCc2c[nH]c3ccccc23)CC1` | activation at 0.5 µM: 9.2

Item: `Oc1cccc2[nH]cc(CCN(CCC(F)(F)F)CCC(F)(F)F)c12` | activation at 0.5 µM: 29.2

Item: `CN(CCc1c[nH]c2ccccc12)CC(F)F` | activation at 0.5 µM: 19.9

Item: `CN(C)CCc1c[nH]c2ccc(SC(F)(F)F)cc12` | activation at 0.5 µM: -34.2

Item: CN(CCc1c[nH]c2ccccc12)[S+]([O-])C(F)(F)F (centres unmarked) | activation at 0.5 µM: -24.1
